target: UniProtKB Q9NYK1; experiment: TLR7 inhibition reporter assay (HEK-Blue SEAP reporter); conditions: HEK-Blue cells overexpressing human TLR7; gardiquimod 7.5 μM; 22 hour incubation
parameter: pIC50
Scale: pIC50 equals -log10([C]), with [C] in mol/L.

// below: answered compounds
COc1ccc(-c2[nH]c3ccc(NC4CCC(N5CCN(C(C)(C)C)CC5)CC4)cc3c2C(C)C)cc1OC (centres unmarked) [Example 50] : 6.37
CCc1c(-c2cc(OC)nc(OC)c2)[nH]c2ccc(N3CCNCC3)cc12 : 7.12
COc1ccc(-c2[nH]c3ccc(NC4CCC(N5CCN(CC(C)C)CC5)CC4)cc3c2C(C)C)cc1OC (centres unmarked) [Example 53] : 6.18
COc1ccc(-c2[nH]c3ccc(N4CCC(N5CCN(C6CCN(C)CC6)CC5)CC4)cc3c2C(C)C)cc1OC : 7.96
COc1ccc(-c2[nH]c3ccc(NC(=O)[C@@H](N)c4ccccc4)cc3c2C(C)C)cc1OC : 6.21

Which pIC50 value belongs to COc1ccc(-c2[nH]c3ccc(N4CCC(C5CCN(Cc6cccn6C)CC5)CC4)cc3c2C(C)C)cc1OC ?
6.36

Which pIC50 value belongs to COc1ccc(-c2[nH]c3ccc(N4CCC(NCCN(C)C)CC4)cc3c2C(C)C)cc1OC ?
6.69

Which pIC50 value belongs to COc1ccc(-c2[nH]c3ccc(N4CCN(C5CCCN(C(C)C)CC5)CC4)cc3c2C(C)C)cc1OC (centres unmarked) ?
7.38

###

biological target: human TLR7 (Homo sapiens, UniProt Q9NYK1); experiment: TLR7 inhibition reporter assay (HEK-Blue SEAP reporter); settings: HEK-Blue cells overexpressing human TLR7; gardiquimod 7.5 μM; 22 hour incubation
Sequence (Q9NYK1 27-1049): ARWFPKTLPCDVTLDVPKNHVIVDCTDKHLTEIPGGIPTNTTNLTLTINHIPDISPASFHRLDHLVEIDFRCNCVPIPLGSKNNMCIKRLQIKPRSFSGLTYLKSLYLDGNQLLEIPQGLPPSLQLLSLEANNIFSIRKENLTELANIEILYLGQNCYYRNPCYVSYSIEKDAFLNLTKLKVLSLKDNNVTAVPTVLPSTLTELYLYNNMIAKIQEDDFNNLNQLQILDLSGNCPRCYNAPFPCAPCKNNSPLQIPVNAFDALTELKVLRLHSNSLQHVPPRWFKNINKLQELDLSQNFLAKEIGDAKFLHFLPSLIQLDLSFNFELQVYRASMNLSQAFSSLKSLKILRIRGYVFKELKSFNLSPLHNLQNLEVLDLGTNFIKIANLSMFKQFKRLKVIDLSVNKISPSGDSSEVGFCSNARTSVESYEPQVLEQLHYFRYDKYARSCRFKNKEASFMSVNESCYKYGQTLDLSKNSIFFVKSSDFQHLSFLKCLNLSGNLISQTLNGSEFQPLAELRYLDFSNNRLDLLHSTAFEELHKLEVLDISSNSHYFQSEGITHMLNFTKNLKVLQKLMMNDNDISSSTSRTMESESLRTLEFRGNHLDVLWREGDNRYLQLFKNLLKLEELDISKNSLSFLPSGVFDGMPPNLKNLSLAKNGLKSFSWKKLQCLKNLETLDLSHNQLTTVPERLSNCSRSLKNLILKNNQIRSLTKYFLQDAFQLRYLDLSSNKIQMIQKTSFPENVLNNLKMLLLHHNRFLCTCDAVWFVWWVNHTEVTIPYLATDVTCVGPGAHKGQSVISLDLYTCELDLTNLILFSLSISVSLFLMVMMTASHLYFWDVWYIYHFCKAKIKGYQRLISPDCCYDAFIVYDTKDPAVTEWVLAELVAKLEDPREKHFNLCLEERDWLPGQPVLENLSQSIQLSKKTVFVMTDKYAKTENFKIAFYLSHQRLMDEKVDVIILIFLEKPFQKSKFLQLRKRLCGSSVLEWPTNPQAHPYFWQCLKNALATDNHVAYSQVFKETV
Entries annotated with measured log10 IC50
Annotation: log10 of IC50, nM basis.

C#CCCCN1CCN(c2ccc3[nH]c(-c4ccc(OC)c(OC)c4)c(C(C)C)c3c2)CC1 [Example 146] : 2.31
COc1ccc(-c2[nH]c3ccc(N4CCC(N5CCN(c6ccncc6)CC5)CC4)cc3c2C(C)C)cc1OC [Example 94] : 1.52
COc1ccc(-c2[nH]c3ccc(N4CCC(N5CCN(CC6CC6)CC5)CC4)cc3c2C(C)C)cc1OC [Example 87] : 2.53

Now let's try a different one.
Param readout= log10 IC50; system= human TLR7 (Homo sapiens, UniProt Q9NYK1); entry= COc1ccc(-c2[nH]c3ccc(N4CCC(N5CCN(C6CCCC6)CC5)CC4)cc3c2C(C)C)cc1OC [Example 93] ; returns value.
2.12

###

Entries annotated with measured log10(IC50)
Molecular target: human TLR9 (Homo sapiens)
Sequence (Q9NR96 26-1032): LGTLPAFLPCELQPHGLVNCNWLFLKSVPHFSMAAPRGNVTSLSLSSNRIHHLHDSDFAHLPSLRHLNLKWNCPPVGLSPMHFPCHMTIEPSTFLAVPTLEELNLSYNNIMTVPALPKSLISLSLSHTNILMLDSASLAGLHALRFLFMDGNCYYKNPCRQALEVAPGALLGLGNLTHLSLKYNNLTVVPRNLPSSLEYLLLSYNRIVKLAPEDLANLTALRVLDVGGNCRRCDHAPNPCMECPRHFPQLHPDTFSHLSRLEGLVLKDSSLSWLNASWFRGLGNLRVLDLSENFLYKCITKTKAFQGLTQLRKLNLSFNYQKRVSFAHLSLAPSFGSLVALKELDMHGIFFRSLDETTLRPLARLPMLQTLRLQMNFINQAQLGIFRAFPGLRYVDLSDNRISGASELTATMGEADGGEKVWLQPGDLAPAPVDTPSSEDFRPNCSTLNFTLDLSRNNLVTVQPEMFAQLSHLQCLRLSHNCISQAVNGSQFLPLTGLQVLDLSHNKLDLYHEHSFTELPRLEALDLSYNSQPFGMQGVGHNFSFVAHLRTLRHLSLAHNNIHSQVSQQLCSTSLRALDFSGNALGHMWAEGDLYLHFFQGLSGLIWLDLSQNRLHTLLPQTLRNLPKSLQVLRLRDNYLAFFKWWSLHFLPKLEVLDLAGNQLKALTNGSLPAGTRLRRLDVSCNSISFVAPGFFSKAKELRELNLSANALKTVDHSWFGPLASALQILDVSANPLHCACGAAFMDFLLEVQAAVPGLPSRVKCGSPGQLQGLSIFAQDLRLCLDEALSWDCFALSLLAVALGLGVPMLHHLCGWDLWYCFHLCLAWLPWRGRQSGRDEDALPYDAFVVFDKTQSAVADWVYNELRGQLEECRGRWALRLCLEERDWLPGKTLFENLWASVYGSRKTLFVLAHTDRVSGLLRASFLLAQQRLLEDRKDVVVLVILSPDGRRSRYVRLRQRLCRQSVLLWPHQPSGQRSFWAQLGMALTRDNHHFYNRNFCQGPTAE
Assay: TLR9 inhibition reporter assay (HEK-Blue SEAP reporter)
Details: HEK-Blue cells overexpressing human TLR9; ODN2006 5 nM; 22 hour incubation
Annotation: log10 of IC50, nM basis.

// below: answered molecules
COc1ccc(-c2[nH]c3ccc(N4CCC(N5CCN(C6CCN(C)CC6)CC5)CC4)cc3c2C(C)C)cc1OC : 2.73
CCc1c(-c2ccnc3[nH]ncc23)[nH]c2ccc(N3CCN(C4CCN(C(C)C)CC4)CC3)cc12 : 2.84
COc1ccc(-c2[nH]c3ccc(NC4CCC(N5CCN(CC(C)C)CC5)CC4)cc3c2C(C)C)cc1OC (stereo not shown) [Example 52] : 3.20
CC(C)c1c(-c2ccnc3[nH]ncc23)[nH]c2ccc(NC(=O)[C@H]3CCNC3)cc12 : 3.89
COc1ccc(-c2[nH]c3ccc(NC4CC(C)(C)N(C)C(C)(C)C4)cc3c2C(C)C)cc1OC : 3.43
CCc1c(-c2ccnc3[nH]ncc23)[nH]c2ccc(N3CCC(OC4CCN(C(C)C)CC4)CC3)cc12 : 3.15
COc1ccc(-c2[nH]c3ccc(N4CCC(N5CCNCC5)CC4)cc3c2C(C)C)cc1OC : 3.32
COc1ccc(-c2[nH]c3ccc(NC4CCC(N5CCN(C(C)(C)C)CC5)CC4)cc3c2C(C)C)cc1OC (stereo not shown) [Example 49] : 2.71
COc1ccc(-c2[nH]c3ccc(N4CCC(N5CC(C)OC(C)C5)CC4)cc3c2C(C)C)cc1OC (stereo not shown) : 3.76
CCc1c(-c2ccc(OC)c(OC)c2)[nH]c2ccc(N3CCCN(CCNC)CC3)cc12 : 3.36

Which log10(IC50) value belongs to COc1ccc(-c2[nH]c3ccc(N4CCC(N(C)CCCN(C)C)CC4)cc3c2C(C)C)cc1OC ?
3.02

Which log10(IC50) value belongs to Cc1cc2[nH]c(-c3ccnc4[nH]ncc34)c(C(C)C)c2cc1N1CCN(C2CCN(C(C)C)CC2)CC1 ?
2.42

Which log10(IC50) value belongs to COc1ccc(-c2[nH]c3ccc(NC(=O)[C@@H](N)C4CCCCC4)cc3c2C(C)C)cc1OC ?
4.05

Which log10(IC50) value belongs to COc1ccc(-c2[nH]c3ccc(NC4CCC(N(C)CCN(C)C)CC4)cc3c2C(C)C)cc1OC (stereo not shown) ?
2.78

Which log10(IC50) value belongs to COc1ccc(-c2[nH]c3ccc(N4CC(N5CCCNCC5)C4)cc3c2C(C)C)cc1OC ?
3.57

Which log10(IC50) value belongs to COc1ccc(-c2[nH]c3ccc(NC4CCC(NCCN(C)C)CC4)cc3c2C(C)C)cc1OC (stereo not shown) [Example 32] ?
2.79

###

Entries annotated with measured IC50
target: human TLR7 (Homo sapiens, UniProt Q9NYK1); assay: TLR7 inhibition reporter assay (HEK-Blue SEAP reporter); details: HEK-Blue cells overexpressing human TLR7; gardiquimod 7.5 μM; 22 hour incubation

// below: answered compounds
COc1ccc(-c2[nH]c3ccc(N4CCN(C5CCN(C(C)C)CC5)CC4)cc3c2C)cc1OC [Example 164] : 7090 nM
COc1ccc(-c2[nH]c3ccc(N4CCC(N5CCN(C(C)(C)C)CC5)CC4)cc3c2C(C)C)cc1OC [Example 90] : 37 nM
Cc1cc(-c2[nH]c3ccc(N4CCNC4=O)cc3c2C(C)C)ccn1 [Example 8] : 92 nM
COc1ccc(-c2[nH]c3ccc(N4CC(N5CCCNCC5)C4)cc3c2C(C)C)cc1OC [Example 29] : 760 nM
COCCN1CCN(C2CCC(Nc3ccc4[nH]c(-c5ccc(OC)c(OC)c5)c(C(C)C)c4c3)CC2)CC1 (stereo not shown) [Example 54] : 269 nM

Which IC50 value belongs to COc1ccc(-c2[nH]c3ccc(N4CC5(CCCNC5)C4)cc3c2C(C)C)cc1OC [Example 136] ?
542 nM

Which IC50 value belongs to Cc1cc2[nH]c(-c3ccnc4[nH]ncc34)c(C(C)C)c2cc1N1CCN(C2CCN(C(C)C)CC2)CC1 [Example 175] ?
7.5 nM

Which IC50 value belongs to COc1ccc(-c2[nH]c3ccc(N4CCC(N5CCN(C(C)C)CC5)CC4)cc3c2C(C)C)cc1OC [Example 85] ?
23 nM
